# assayTarget: human PAR-2 (hPAR-2) receptor expressed in HEK-293 T cells in an endogenous manner (Homo sapiens)
# Construct: human PAR-2 (hPAR-2) receptor expressed in HEK-293 T cells in an endogenous manner; endogenous in cells
# Sequence (P55085 26-397): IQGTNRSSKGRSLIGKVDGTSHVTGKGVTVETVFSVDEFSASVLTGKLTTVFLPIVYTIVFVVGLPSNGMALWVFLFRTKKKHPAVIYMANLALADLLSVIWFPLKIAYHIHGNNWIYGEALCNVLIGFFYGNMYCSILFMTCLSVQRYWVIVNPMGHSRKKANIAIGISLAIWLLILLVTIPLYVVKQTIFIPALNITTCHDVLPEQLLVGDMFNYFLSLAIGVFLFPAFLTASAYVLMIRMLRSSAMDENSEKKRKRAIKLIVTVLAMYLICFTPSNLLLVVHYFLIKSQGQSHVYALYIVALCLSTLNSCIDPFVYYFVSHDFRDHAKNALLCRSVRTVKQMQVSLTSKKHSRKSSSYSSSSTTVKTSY
# testMethodNotes: In vitro human PAR-2 functional antagonist activity using calcium assays (Fluo4AM, FLIPR Tetra)
# measurementConditions: HEK-293 T cells stimulated by an EC80 of the 2-Furoyl-LIGRLO-NH2 peptide after 10 min incubation with compound; 20 concentrations, duplicate, two independent experiments
pIC50: −log10 of the molar value.
measurementName: pIC50

// known answers, use as guide
Looking for the measured pIC50 of CCOP(=O)(O)c1ccc(N2CCN(C(=O)c3ccc4c(-c5ccc(Cl)c(F)c5)cn(C(C)(C)C)c4n3)C(C)(C)C2)nc1 , can you help? 5.00 to 7.70

Looking for the measured pIC50 of CC1(C)CN(C(=O)CCCCCCC(=O)O)CCN1C(=O)c1ccc2c(-c3ccc(Cl)c(F)c3)cn(C(C)(C)C)c2n1 , can you help? > 7.70

Looking for the measured pIC50 of COc1ccc(-c2cn(CC(C)C)c3nc(C(=O)N4CCNC(=O)C4(C)C)ccc23)cn1 , can you help? 5.00 to 7.70

Next:
Looking for the measured pIC50 of CC(C)Cn1cc(-c2ccc(Cl)cc2Cl)c2ccc(C(=O)N3CCNC(=O)C3(C)C)nc21 , can you help? 5.00 to 7.70

Looking for the measured pIC50 of CCOC(=O)c1ccc(N2CCN(C(=O)c3ccn4c(-c5ccc(Cl)cc5)nc(C(C)(C)C)c4n3)C(C)(C)C2)nc1 , can you help? < 5.00

Looking for the measured pIC50 of CC(C)Cc1nn(-c2ccc(Cl)c(F)c2)c2ccc(C(=O)N3CCNC(=O)C3(C)C)nc12 , can you help? 5.00 to 7.70

Looking for the measured pIC50 of CC(C)Cc1nn(-c2ccc(Cl)c(F)c2)c2ccc(C(=O)N3CCNC(=O)C3(C)C)cc12 , can you help? 5.00 to 7.70

Looking for the measured pIC50 of CC(C)(C)n1cc(-c2ccc(Cl)c(F)c2)c2ccc(C(=O)N3CCC4(NC(=O)NC4=O)C(C)(C)C3)nc21 (stereo not drawn) , can you help? 5.00 to 7.70

Looking for the measured pIC50 of Cc1cc(N[C@@H]2CCN(C(=O)c3ccc4c(-c5ccc(Cl)c(F)c5)cn(C(C)(C)C)c4n3)C2)nc(C)c1C(=O)O , can you help? < 5.00

Looking for the measured pIC50 of Cc1c(-c2ccc(Cl)c(F)c2)c2ccc(C(=O)N3CCNC(=O)C3(C)C)nc2n1CC(C)C , can you help? > 7.70

Looking for the measured pIC50 of CC(C)(C)c1cn(-c2ccc(Cl)c(F)c2)c2ccc(C(=O)N3CCC(CC(=O)O)CC3)nc12 , can you help? < 5.00

Looking for the measured pIC50 of CC(C)Cn1cc(-c2ccccc2F)c2ccc(C(=O)N3CCNC(=O)C3(C)C)nc21 , can you help? 5.00 to 7.70

Looking for the measured pIC50 of CC(C)Cn1cc(-c2ccc(OC(F)(F)F)cc2)c2ccc(C(=O)N3CCNC(=O)C3(C)C)nc21 , can you help? 5.00 to 7.70

Looking for the measured pIC50 of COC[C@H](C)n1cc(-c2ccc(Cl)c(F)c2)c2ccc(C(=O)N3CCN(c4cc(C)c(C(=O)O)c(C)n4)CC3(C)C)nc21 , can you help? > 7.70

Looking for the measured pIC50 of CC1(C)CCCN1C(=O)c1ccc2c(-c3ccc(Cl)c(F)c3)cn(C(C)(C)C)c2n1 , can you help? 5.00 to 7.70
